Molecular target: CYP2C9 (Homo sapiens, UniProt P11712)
Sequence (P11712 whole entry): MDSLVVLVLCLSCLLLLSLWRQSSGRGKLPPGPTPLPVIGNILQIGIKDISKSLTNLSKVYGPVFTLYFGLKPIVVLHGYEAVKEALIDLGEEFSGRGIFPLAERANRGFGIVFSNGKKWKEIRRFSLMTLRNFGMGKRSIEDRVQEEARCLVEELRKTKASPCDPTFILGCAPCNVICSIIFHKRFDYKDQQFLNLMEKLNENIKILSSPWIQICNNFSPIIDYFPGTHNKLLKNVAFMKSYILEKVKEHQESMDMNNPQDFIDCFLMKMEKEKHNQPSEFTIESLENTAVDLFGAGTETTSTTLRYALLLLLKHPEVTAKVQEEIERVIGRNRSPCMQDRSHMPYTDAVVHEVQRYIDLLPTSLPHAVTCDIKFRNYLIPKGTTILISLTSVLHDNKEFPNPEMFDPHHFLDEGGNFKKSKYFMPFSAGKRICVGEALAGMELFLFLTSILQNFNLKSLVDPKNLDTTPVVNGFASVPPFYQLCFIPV
Assay: Residual activity of cytochrome P450 at 10 uM
What residual activity at 10 µM was measured for each of the following?
Put your answer as a value accompanied by its unit after it.

Query string: Check the records and state residual activity at 10 µM for "CC(C)(C)NC(=O)[C@@H]1CN(Cc2cccnc2)CCN1C[C@@H](O)C[C@@H](Cc1ccccc1)C(=O)N[C@H]1c2ccccc2C[C@H]1O"
Result string: 89%

Query string: Check the records and state residual activity at 10 µM for Cc1cc(SC2=C(O)O[C@](CCc3ccc(O)cc3)(C(C)C)CC2=O)c(C(C)(C)C)cc1N (stereo in doubt; 1S)
Result string: 75.5%

Query string: Check the records and state residual activity at 10 µM for Cc1cc(SC2=C(O)OC(CCc3ccc(O)cc3)(C(C)C)CC2=O)c(C(C)(C)C)cc1OS(=O)(=O)c1ccc(C#N)cc1 (stereo not drawn)
Result string: 18.1%

---

What Cmax was measured for each of the following?
Assay: Tested for maximum plasma concentration in mice
Format: ADME, organism-based
Settings: mouse
Numbers only here, please. The scale is nM.

Query string: Check the records and state Cmax for Cc1cc(SC2=C(O)OC(CCc3ccc(O)cc3)(C(C)C)CC2=O)c(C(C)(C)C)cc1OS(=O)(=O)c1cccnc1 (stereo not drawn)
Result string: 630

Query string: Check the records and state Cmax for Cc1cc(SC2=C(O)OC(CCc3ccc(O)cc3)(C(C)C)CC2=O)c(C(C)(C)C)cc1NS(=O)(=O)c1ccc(C(F)(F)F)cn1 (stereo not drawn)
Result string: 1270

Query string: Check the records and state Cmax for "Cc1cc(SC2=C(O)O[C@](CCc3ccccc3)(C(C)C)CC2=O)c(C(C)(C)C)cc1NS(=O)(=O)c1ccc(C#N)cc1"
Result string: 10300

Query string: Check the records and state Cmax for Cc1cc(SC2=C(O)OC(CCc3ccccc3)(C(C)C)CC2=O)c(C(C)(C)C)cc1NS(=O)(=O)c1ccccn1 (stereo not drawn)
Result string: 1140

Query string: Check the records and state Cmax for "Cc1cc(SC2=C(O)O[C@](CCc3ccc(O)cc3)(C(C)C)CC2=O)c(C(C)(C)C)cc1OS(C)(=O)=O"
Result string: 6540

Query string: Check the records and state Cmax for CCNS(=O)(=O)Oc1cc(C(C)(C)C)c(SC2=C(O)OC(CCc3ccccc3)(C(C)C)CC2=O)cc1C (stereo not drawn)
Result string: 620

Query string: Check the records and state Cmax for "Cc1cc(SC2=C(O)O[C@](CCc3ccccc3)(C(C)C)CC2=O)c(C(C)(C)C)cc1NS(=O)(=O)c1ccc(C(F)(F)F)cn1"
Result string: 9200

Query string: Check the records and state Cmax for Cc1cc(SC2=C(O)OC(CCc3ccccc3)(C(C)C)CC2=O)c(C(C)(C)C)cc1NS(=O)(=O)c1ccc(C#N)cc1 (stereo not drawn)
Result string: 2000

---

Experiment: Tested for cytotoxic activity against HIV-1 1002-60 in PBMC cells
Assay type: cell-based
Conditions: human, read-out: TC50 (the source's name)
measured.attribute: CC50

Query string: Check the records and state CC50 for "CC(C)(C)NC(=O)[C@@H]1C[C@@H]2CCCC[C@@H]2CN1C[C@@H](O)[C@H](Cc1ccccc1)NC(=O)[C@H](CC(N)=O)NC(=O)c1ccc2ccccc2n1"
Result string: > 50 µM

Query string: Check the records and state CC50 for "CC(C)(C)NC(=O)[C@@H]1CN(Cc2cccnc2)CCN1C[C@@H](O)C[C@@H](Cc1ccccc1)C(=O)N[C@H]1c2ccccc2C[C@H]1O"
Result string: > 100 µM

Query string: Check the records and state CC50 for Cc1cc(SC2=C(O)OC(CCc3ccc(O)cc3)(C(C)C)CC2=O)c(C(C)(C)C)cc1OS(C)(=O)=O (stereo not given)
Result string: > 100 µM

Query string: Check the records and state CC50 for Cc1cc(SC2=C(O)O[C@](CCc3ccc(O)cc3)(C(C)C)CC2=O)c(C(C)(C)C)cc1N (stereo in doubt; 1S)
Result string: > 100 µM

Query string: Check the records and state CC50 for Cc1cc(SC2=C(O)OC(CCc3ccccc3)(C(C)C)CC2=O)c(C(C)(C)C)cc1NS(=O)(=O)c1ccc(C(F)(F)F)cn1 (stereo not given)
Result string: > 100 µM
